Values from patent US20240139185A1

Recorded measurements of pKd, one per entry
- system.under.test: cyclophilin A (CYPA) (Homo sapiens)
- method.description: CYPA-compound binary complex formation by SPR
- stated.conditions: read-out: CYPA Binding Affinity
pKd: −log10 of the molar value.

Check out these entries, answers already filled in.
[[record]]
compound = "CC1COC(=O)C2CCCN(N2)C(=O)C(NC(=O)C(C(C)C)N(C)C(=O)C2CN(C(=O)CCl)C2)Cc2cc(O)cc(c2)-c2ccc3c(c2)N(C1)CC3(C)C#N (mixture of isomers)"
quantity_measured = "pKd"
val = "≥ 5.30"

[[record]]
compound = "CC(C)C(C(=O)NC1Cc2cc(O)cc(c2)-c2ccc3c(C(C)(C)C#N)cn(c3c2)CC(Cl)COC(=O)C2CCCN(N2)C1=O)N(C)C(=O)C1CN(C(=O)CCl)C1 (single isomer, unassigned)"
quantity_measured = "pKd"
val = "≥ 5.30"

[[record]]
compound = "CC(C)[C@@H](C(=O)N[C@H]1Cc2cc(O)cc(n2)-c2ccc3c(C(C)(C)C#N)cn(c3c2)C[C@H](C)CNC(=O)[C@@H]2CCCN(N2)C1=O)N(C)C(=O)C1CN(C(=O)CCl)C1"
quantity_measured = "pKd"
val = "4.82 to 5.30"

[[record]]
compound = "CC1COC(=O)C2CCCN(N2)C(=O)C(NC(=O)C(C(C)C)N(C)C(=O)C2CN(C(=O)CCl)C2)Cc2cc(O)cc(c2)-c2ccc3c(c2)c(cn3CC2COC2)C1 (mixture of isomers)"
quantity_measured = "pKd"
val = "≥ 5.30"

[[record]]
compound = "CC(C)[C@@H](C(=O)N[C@H]1Cc2cc(O)cc(c2)-c2cc3c(ccc(C#N)c3s2)OCCCOC(=O)[C@@H]2CCCN(N2)C1=O)N(C)C(=O)C1CN(C(=O)CCl)C1"
quantity_measured = "pKd"
val = "4.82 to 5.30"


Please turn your attention to the following entry.
Give its pKd value. Item: Cc1nc2ccc3cc2n1C[C@@H](C)COC(=O)[C@@H]1CCCN(N1)C(=O)[C@@H](NC(=O)[C@H](C(C)C)N(C)C(=O)C1CN(C(=O)CCl)C1)Cc1cc(O)cc-3c1 < 4.82

* * *

Recorded measurements of EC50, one per entry
- system.under.test: BRAF-GTP-KRAS-G12C complex (Homo sapiens, UniProt P01116+P62937, G12C)
- Construct: 50 nM of His6-KRas G12C-GTP (1-169); 500 nM of tagless CypA (1-165)
- method.description: KRAS-BRAF complex disruption through competition with CYPA-compound by TR-FRET
- stated.conditions: biochemical BRAF-KRAS G12C-GTP disruption assay EC50, with CYPA

Check out these entries, answers already filled in.
[[record]]
compound = "C=CC(=O)N1CCN([C@H](C(=O)N[C@H]2Cc3cc(O)cc(c3)-c3ccc4nc(C)n(c4c3)CC(C)(C)COC(=O)[C@@H]3CCCN(N3)C2=O)C(C)C)C1=O"
val = "≤ 500 nM"

[[record]]
compound = "CC(C)C1COC(=O)[C@@H]2CCCN(N2)C(=O)[C@@H](NC(=O)[C@H](C(C)C)N(C)C(=O)C2CN(C(=O)CCl)C2)Cc2cc(O)cc(c2)-c2ccc3c(C(C)(C)C#N)cn(c3c2)C1 (stereo partly drawn)"
val = "≤ 500 nM"

[[record]]
compound = "CC(C)[C@@H](C(=O)N[C@H]1Cc2cc(O)cc(c2)-c2ccc3c(c2)n(c(=O)n3C)CC(C)(C)COC(=O)[C@@H]2CCCN(N2)C1=O)N(C)C(=O)C1CN(C(=O)CCl)C1"
val = "≤ 500 nM"


# query: EC50 | item Cc1cnn(C)c1-c1cn2c3cc(ccc13)-c1cc(O)cc(c1)C[C@H](NC(=O)[C@H](C(C)C)N(C)C(=O)C1CN(C(=O)CCl)C1)C(=O)N1CCC[C@H](N1)C(=O)OCC(C)(C)C2 | system: BRAF-GTP-KRAS-G12C complex (Homo sapiens, UniProt P01116+P62937, G12C) ≤ 500 nM

# query: EC50 | item C=CC(=O)N1CCC(C(=O)N(C)C(C(=O)NC2Cc3cc(O)cc(c3)-c3ccc4c(C(C)(C)C#N)cn(c4c3)CC(C)(C)COC(=O)C3CCCN(N3)C2=O)C(C)C)C1 (stereo not drawn) | system: BRAF-GTP-KRAS-G12C complex (Homo sapiens, UniProt P01116+P62937, G12C) 500 to 5000 nM

# query: EC50 | item CC(C)[C@@H](C(=O)N[C@H]1Cc2cc(O)cc(c2)-c2ccc3c(C(C)(C)C#N)cn(c3c2)C[C@H](C)COC(=O)[C@@H]2CCCN(N2)C1=O)N1CC[C@@H](N(C)C(=O)CCl)C1=O | system: BRAF-GTP-KRAS-G12C complex (Homo sapiens, UniProt P01116+P62937, G12C) 500 to 5000 nM

# query: EC50 | item COCC1COC(=O)C2CCCN(N2)C(=O)C(NC(=O)C(C(C)C)N(C)C(=O)C2CN(C(=O)CCl)C2)Cc2cc(O)cc(c2)-c2ccc3c(C(C)(C)C#N)cn(c3c2)C1 (single isomer, unassigned) | system: BRAF-GTP-KRAS-G12C complex (Homo sapiens, UniProt P01116+P62937, G12C) ≤ 500 nM

* * *

- system.under.test: BRAF-GTP-KRAS-G12C complex (Homo sapiens, UniProt P01116+P62937, G12C)
- Construct: 50 nM of His6-KRas G12C-GTP (1-169); 500 nM of tagless CypA (1-165)
- method.description: KRAS-BRAF complex disruption through competition with CYPA-compound by TR-FRET
- stated.conditions: biochemical BRAF-KRAS G12C-GTP disruption assay EC50, with CYPA
pEC50: −log10 of the molar value.
Recorded measurements of pEC50, one per entry

Check out these entries, answers already filled in.
[[record]]
compound = "C=CC(=O)N1CCC1C(=O)N(C)C(C(=O)NC1Cc2cc(O)cc(c2)-c2ccc3c(C(F)F)nn(c3c2)CC(C)COC(=O)C2CCCN(N2)C1=O)C(C)C (centres unmarked) [Compound 203]"
quantity_measured = "pEC50"
val = "< 5.30"

[[record]]
compound = "CC1=C(C)C(=O)N(CC(=O)N(C)[C@H](C(=O)N[C@H]2Cc3cc(O)cc(c3)-c3ccc4ncn(c4c3)CCCOC(=O)[C@@H]3CCCN(N3)C2=O)C(C)C)C1=O"
quantity_measured = "pEC50"
val = "< 5.30"

[[record]]
compound = "CN(C(=O)C1CN(C(=O)CCl)C1)[C@@H](CC1CC1)C(=O)N[C@H]1Cc2cc(O)cc(c2)-c2ccc3c(C(C)(C)C#N)cn(c3c2)CC(C)(C)COC(=O)[C@@H]2CCCN(N2)C1=O"
quantity_measured = "pEC50"
val = "≥ 6.30"

[[record]]
compound = "C=CC(=O)N1CCN([C@H](C(=O)N[C@H]2Cc3cc(O)cc(c3)-c3ccc4nccc(c4c3)OCCOC(=O)[C@@H]3CCCN(N3)C2=O)C(C)C)C1=O"
quantity_measured = "pEC50"
val = "< 5.30"


Please turn your attention to the following entry.
Give its pEC50 value. Item: CC(C)[C@@H](C(=O)N[C@H]1Cc2cc(O)cc(c2)-c2ccc3c4cc(C#N)ccc4n(c3c2)CC(C)(C)COC(=O)[C@@H]2CCCN(N2)C1=O)N(C)C(=O)C1CN(C(=O)CCl)C1 ≥ 6.30
